# System: rat brain mitochondrial MAO-A (Rattus norvegicus, UniProt P21396)
# Sequence (P21396 whole entry): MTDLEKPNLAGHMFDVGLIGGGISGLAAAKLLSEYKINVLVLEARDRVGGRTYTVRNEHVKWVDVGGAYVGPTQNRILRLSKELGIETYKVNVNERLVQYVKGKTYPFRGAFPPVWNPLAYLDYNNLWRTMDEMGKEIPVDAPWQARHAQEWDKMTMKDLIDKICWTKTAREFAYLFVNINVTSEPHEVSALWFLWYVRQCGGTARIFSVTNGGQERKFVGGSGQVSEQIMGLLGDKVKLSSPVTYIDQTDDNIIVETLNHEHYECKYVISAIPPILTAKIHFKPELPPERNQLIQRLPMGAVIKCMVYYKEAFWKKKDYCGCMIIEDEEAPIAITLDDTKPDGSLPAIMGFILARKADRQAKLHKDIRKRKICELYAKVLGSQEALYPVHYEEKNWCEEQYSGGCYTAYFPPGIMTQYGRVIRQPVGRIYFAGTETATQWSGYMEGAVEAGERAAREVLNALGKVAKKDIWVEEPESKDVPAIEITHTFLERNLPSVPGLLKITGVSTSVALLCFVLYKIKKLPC
pIC50: −log10 of the molar value.
Reported Metric: pIC50

>>> readout_value("NC/C(=C/F)CCc1ccc(F)cc1")
6.17
